Biological target: T1, His-tagged CEACAM1 (human, UniProt P13688 35-428)
T1 construct: 45 kDa SPR analyte; also called CEACAM1-HIS; CEACAM1 analyte
T1 sequence: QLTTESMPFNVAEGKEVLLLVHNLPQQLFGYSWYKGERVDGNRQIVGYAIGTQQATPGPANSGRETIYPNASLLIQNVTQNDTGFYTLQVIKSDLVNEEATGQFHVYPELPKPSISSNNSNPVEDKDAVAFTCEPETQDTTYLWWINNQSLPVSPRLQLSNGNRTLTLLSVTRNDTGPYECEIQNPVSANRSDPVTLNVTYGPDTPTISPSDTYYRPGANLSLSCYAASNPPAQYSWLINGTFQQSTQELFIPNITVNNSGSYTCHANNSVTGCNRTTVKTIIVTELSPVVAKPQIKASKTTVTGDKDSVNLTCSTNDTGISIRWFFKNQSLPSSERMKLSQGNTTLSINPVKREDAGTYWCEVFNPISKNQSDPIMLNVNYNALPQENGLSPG
Assay: SPR single-cycle, supernatant IgG captured
Assign TRUE whenever kon does not fall below 100000 M⁻¹ s⁻¹; assign FALSE whenever it does.

binder: CP09C02/CP08G09 (antibody, IgG4, V domains shown, IgG4 (S241P), kappa) VH: EVQLLESGGGLVQPGGSLRLSCAASEFTFSDHAMSWVRQAPGKGLEWVATISSGGTYTYYPDSVKGRFTISRDNSKNTLYLQMNSLKAEDTAMYYCARHGFDYDAAWFAYWGQGTLVTVSS VL: EIVLTQSPATLSLSPGERATLSCRANSAVSYMYWYQQKPGQAPRPWIYLTSNRATGVPARFSGSGSGTDYTLTISSLEPEDFAVYYCQQWTAFPPTFGQGTKLEIK
label-class: TRUE
--
binder: CP09E05/CP08D02 (antibody, IgG4, V domains shown, IgG4 (S241P), kappa) VH: EVQLLESGGGLVQPGGSLRLSCAASGFIFSSHGMSWVRQAPGKGLEWVATISSGGTYTYYPDSVKGRFTISRDNSKNTLYLQMNSLKAEDTAMYYCARHGFDYDAAWFAYWGQGTLVTVSS VL: EIVLTQSPATLSLSPGERATLSCRANSAVSYMYWYQQKPGQAPRPWIYLTSNRATGVPARFSGSGSGTDYTLTISSLEPEDFAVYYCQQWTSFPPTFGQGTKLEIK
label-class: TRUE
--
binder: CP09C02/CP08F05 (antibody, IgG4, V domains shown, IgG4 (S241P), kappa) VH: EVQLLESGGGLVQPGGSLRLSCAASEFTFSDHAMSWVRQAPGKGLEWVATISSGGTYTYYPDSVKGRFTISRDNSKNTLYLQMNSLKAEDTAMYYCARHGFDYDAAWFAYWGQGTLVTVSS VL: EIVLTQSPATLSLSPGERATLSCRANSAVSYMYWYQQKPGQAPRPWIYLTSNRATGVPARFSGSGSGTDYTLTISSLEPEDFAVYYCQQWTSNPPTFGQGTKLEIK
label-class: TRUE
--
binder: CP08H03/CP08E05 (antibody, IgG4, V domains shown, IgG4 (S241P), kappa) VH: EVQLLESGGGLVQPGGSLRLSCAASGFIFSSHGMSWVRQAPGKGLEWVATISSGGTYTYYPDSVKGRFTISRDNSKNTLYLQMNSLKAEDTAMYYCARHDFDYFPYWFAHWGQGTLVTVSS VL: EIVLTQSPATLSLSPGERATLSCRANSAVSYMYWYQQKPGQAPRPWIYLTSNRATGVPARFSGSGSGTDYTLTISSLEPEDFAVYYCQQWTTNPPTFGQGTKLEIK
label-class: FALSE
--
binder: CP08H03/CP08F05 (antibody, V domains shown, IgG4 (S241P), kappa) VH: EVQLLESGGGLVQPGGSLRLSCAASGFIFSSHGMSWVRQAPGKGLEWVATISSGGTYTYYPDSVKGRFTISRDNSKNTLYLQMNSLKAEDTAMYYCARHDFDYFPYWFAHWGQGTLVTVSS VL: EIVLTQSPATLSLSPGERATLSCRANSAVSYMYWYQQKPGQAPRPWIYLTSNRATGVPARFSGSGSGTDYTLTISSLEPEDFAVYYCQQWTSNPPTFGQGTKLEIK
label-class: FALSE
--
binder: CP09C02/CP08D02 (antibody, IgG4, V domains shown, IgG4 (S241P), kappa) VH: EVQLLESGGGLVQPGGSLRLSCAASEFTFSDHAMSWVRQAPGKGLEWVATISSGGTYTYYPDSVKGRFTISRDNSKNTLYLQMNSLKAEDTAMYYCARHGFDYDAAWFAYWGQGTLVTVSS VL: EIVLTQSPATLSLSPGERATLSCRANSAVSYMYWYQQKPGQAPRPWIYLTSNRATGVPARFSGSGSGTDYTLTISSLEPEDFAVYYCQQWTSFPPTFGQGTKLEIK
label-class: TRUE
--
binder: VH1/CP08E05 (antibody, IgG4, V domains shown, IgG4 (S241P), kappa; also called Parent VH/CP08E05) VH: EVQLLESGGGLVQPGGSLRLSCAASGFIFSSHGMSWVRQAPGKGLEWVATISSGGTYTYYPDSVKGRFTISRDNSKNTLYLQMNSLKAEDTAMYYCARHDFDYDAAWFAYWGQGTLVTVSS VL: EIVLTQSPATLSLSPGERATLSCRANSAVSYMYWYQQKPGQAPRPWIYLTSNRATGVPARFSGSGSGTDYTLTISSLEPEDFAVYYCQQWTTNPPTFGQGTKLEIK
label-class: TRUE
--
binder: VH1/CP08G09 (antibody, IgG4, V domains shown, IgG4 (S241P), kappa; also called Parent VH/CP08G09) VH: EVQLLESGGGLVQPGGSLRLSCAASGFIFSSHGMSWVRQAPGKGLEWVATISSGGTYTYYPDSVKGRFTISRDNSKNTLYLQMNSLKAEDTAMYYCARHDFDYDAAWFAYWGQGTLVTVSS VL: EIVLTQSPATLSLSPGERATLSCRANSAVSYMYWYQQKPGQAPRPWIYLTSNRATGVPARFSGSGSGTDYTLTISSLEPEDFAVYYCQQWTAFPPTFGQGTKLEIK
label-class: TRUE
--
binder: CP09E05/Vκ8 S29A (antibody, IgG4, V domains shown, IgG4 (S241P), kappa) VH: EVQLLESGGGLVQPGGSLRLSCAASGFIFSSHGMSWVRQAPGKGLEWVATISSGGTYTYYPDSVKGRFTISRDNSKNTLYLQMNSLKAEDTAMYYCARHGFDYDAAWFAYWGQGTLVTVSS VL: EIVLTQSPATLSLSPGERATLSCRANSAVSYMYWYQQKPGQAPRPWIYLTSNRATGVPARFSGSGSGTDYTLTISSLEPEDFAVYYCQQWSSNPPTFGQGTKLEIK
label-class: TRUE
--
binder: CP09C02/CP08E01 (antibody, IgG4, V domains shown, IgG4 (S241P), kappa) VH: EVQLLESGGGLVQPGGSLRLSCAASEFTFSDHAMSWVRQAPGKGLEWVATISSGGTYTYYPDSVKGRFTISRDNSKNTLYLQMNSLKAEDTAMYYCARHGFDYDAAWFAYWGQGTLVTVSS VL: EIVLTQSPATLSLSPGERATLSCRANSAVSYMYWYQQKPGQAPRPWIYLTSNRATGVPARFSGSGSGTDYTLTISSLEPEDFAVYYCQQWTTFPPTFGQGTKLEIK
label-class: TRUE

// data source = patent US20250074980A1
